study-target: human CD33 E336A (human, UniProt P20138 18-364)
Sequence (P20138 18-364 E336A limits assumed): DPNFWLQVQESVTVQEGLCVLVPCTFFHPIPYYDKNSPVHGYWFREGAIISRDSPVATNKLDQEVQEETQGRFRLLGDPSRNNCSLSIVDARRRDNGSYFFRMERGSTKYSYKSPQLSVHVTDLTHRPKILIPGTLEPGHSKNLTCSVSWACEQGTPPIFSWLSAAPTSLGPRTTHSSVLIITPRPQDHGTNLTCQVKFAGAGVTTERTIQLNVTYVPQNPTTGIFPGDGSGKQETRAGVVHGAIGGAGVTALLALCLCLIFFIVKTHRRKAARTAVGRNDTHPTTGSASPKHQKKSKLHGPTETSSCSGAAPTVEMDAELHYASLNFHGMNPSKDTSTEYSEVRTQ
experiment-description: flow cytometry, alanine scan
assay-metric: Mean % WT Binding

- Refmab #2 (antibody, V domains shown, The alanine scan used IgG or Fab) VH: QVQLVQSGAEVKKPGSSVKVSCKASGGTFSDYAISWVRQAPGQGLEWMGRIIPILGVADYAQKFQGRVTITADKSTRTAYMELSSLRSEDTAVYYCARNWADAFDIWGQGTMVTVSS VL: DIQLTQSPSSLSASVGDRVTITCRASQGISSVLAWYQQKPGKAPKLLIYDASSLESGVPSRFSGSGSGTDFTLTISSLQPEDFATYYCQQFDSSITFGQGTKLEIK: 117 % of WT
- Refmab #1 (antibody, V domains shown, The alanine scan used IgG or Fab; also called hP67.6) VH: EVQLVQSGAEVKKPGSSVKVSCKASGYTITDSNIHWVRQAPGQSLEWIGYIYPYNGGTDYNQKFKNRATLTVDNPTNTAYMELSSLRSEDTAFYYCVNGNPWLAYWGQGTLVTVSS VL: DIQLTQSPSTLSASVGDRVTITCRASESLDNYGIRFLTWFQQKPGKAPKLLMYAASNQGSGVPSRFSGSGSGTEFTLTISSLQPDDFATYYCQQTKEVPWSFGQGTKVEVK: 82.8 % of WT
- Refmab #4 (antibody, V domains shown, The alanine scan used IgG or Fab) VH: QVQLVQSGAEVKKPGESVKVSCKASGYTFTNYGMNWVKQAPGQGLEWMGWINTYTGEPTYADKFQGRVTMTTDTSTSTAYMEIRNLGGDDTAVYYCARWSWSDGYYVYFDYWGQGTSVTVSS VL: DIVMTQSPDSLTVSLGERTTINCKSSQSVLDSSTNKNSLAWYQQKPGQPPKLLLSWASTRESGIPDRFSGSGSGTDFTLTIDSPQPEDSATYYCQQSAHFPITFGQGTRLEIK: 109 % of WT
- Refmab #3 (antibody, V domains shown, The alanine scan used IgG or Fab) VH: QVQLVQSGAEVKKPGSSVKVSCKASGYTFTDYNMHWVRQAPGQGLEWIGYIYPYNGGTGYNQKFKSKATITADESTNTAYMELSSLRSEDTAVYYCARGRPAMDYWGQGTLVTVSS VL: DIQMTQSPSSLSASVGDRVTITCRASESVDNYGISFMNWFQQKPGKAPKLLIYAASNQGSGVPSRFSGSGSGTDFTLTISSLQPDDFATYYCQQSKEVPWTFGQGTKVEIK: 103 % of WT
